TGT: human GLP-1 receptor (human, UniProt P43220 24-463)
PROCEDURE_TEXT: cell-based or functional assay
Starred links: 1 amine or outer side, 2 acyl side, 3 side chain; linkers in the order of their positions; H or OH if unused. Non-standard residues stand in square brackets, D forms with d. Groups on a side chain read outwards from the residue. *: point of attachment. Decanoyl(10-(4-HOOC-PhO)) = O=C(O)c1ccc(OCCCCCCCCCC(=O)*)cc1; C20 diacid = O=C(O)CCCCCCCCCCCCCCCCCCC(=O)*; C18 diacid = O=C(O)CCCCCCCCCCCCCCCCC(=O)*; γGlu = O=C(O)[C@H](CCC(=O)[*:2])N[*:1]; Trx = NC[C@H]1CC[C@H](C(=O)O)CC1; AEEA = NCCOCCOCC(=O)O; Aib = CC(C)(N)C(=O)O
Kindly supply the reported Human GLP-1R potency [EC50 (pM)] values for the records listed here.
Your answer is read as pM, so omit the unit and give the number.

Consider the binder Compound 0026 (peptide) peptide: H[Aib]EGTFTSDVSSYLEGQAAK([AEEA-AEEA-γGlu-C18 diacid])EFIAWLVRGRGQEPGQAPEASELSTAALGRLSAELHELATLPRTETGSGSP-NH2 and give its measured Human GLP-1R potency [EC50 (pM)]. 8.8

# query: Human GLP-1R potency [EC50 (pM)] of entry Compound 0539 (peptide) peptide: H[Aib]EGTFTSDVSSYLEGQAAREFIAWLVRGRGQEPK([AEEA-AEEA-γGlu-Trx-C20 diacid])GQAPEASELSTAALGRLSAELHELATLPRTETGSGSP-NH2 5

Recorded Human GLP-1R potency [EC50 (pM)] of Compound 0512 (peptide) peptide: H[Aib]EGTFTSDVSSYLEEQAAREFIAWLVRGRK([AEEA-AEEA-γGlu-Trx-C20 diacid])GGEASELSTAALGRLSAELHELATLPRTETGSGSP-NH2 , please. 7.6

Report Human GLP-1R potency [EC50 (pM)] for Compound 0232 (peptide) peptide: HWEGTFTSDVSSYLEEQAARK([AEEA-AEEA-γGlu-Decanoyl(10-(4-HOOC-PhO))])FIEWLVRGRGEGGGGGASELSTAALGRLSAELHELK([AEEA-AEEA-γGlu-Decanoyl(10-(4-HOOC-PhO))])TLPRTETGSGSP-NH2 please. 6.4

Data origin, for the record: patent US20260132182A1
